Recorded HT1D, percent of control-specific binding, one value per entry.
Molecular target: 5-HT1D (r) (Rattus norvegicus, UniProt P28565)
Construct: host or cells: CHO cells
Sequence (P28565 whole entry): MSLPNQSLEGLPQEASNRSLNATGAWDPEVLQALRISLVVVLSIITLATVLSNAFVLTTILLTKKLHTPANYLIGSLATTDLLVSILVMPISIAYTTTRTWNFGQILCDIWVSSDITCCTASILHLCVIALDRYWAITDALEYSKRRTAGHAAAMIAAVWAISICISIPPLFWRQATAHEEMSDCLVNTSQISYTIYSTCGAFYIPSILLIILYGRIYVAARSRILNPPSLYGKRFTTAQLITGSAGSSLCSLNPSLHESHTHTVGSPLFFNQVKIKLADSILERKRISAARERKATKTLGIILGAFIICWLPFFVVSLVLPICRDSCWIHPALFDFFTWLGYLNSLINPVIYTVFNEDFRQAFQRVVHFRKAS
Test: Competition assay to measure binding affinity at 5-HT1D receptor
Settings: test ligand 10 μM; [3H]serotonin 1 nM
Record the result as number plus unit.

Solved entries (count: 4):
| compound | value-reported |
| --- | --- |
| COc1cc(CCN)c(OC)cc1Br [2C-B, reference compound] | 100% |
| CC(Cc1ccc2c(c1)OCCO2)NCc1ccccc1 (centres unmarked) [A(XXIII)] | 29% |
| COc1cc(CCN)cc(OC)c1OC [mescaline, 3,4,5 trimethoxyphenethylamine] | 70% |
| CNC(C)Cc1ccc2c(c1)OCO2 (centres unmarked) [MDMA, reference compound] | 18% |

Input line: Look up HT1D, percent of control-specific binding for this compound: Cc1ccc(Sc2ccccc2N2CCNCC2)c(C)c1 [vortioxetine, reference compound]
Output line: 100%

###

In this section, each of the molecules is paired with its reported DAT, percent of control-specific binding.
Molecular target: DAT (h) (Homo sapiens)
Construct: host or cells: CHO cells
Sequence (Q01959 whole entry): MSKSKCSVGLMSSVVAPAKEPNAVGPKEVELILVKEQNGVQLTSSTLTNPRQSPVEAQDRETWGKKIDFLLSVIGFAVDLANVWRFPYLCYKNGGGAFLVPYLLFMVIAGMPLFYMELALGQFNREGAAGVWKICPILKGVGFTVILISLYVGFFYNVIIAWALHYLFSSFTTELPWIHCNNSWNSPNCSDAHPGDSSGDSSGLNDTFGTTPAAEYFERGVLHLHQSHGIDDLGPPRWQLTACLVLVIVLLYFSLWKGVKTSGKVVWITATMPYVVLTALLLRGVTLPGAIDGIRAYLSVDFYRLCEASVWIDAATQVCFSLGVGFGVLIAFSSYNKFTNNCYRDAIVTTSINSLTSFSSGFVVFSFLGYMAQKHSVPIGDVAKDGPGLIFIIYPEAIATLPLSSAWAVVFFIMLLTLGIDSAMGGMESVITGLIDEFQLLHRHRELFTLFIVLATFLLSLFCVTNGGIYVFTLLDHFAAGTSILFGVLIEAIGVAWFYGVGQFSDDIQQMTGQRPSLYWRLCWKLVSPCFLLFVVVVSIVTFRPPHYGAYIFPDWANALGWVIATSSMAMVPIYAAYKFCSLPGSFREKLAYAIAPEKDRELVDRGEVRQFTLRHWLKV
Test: Competition assay to measure binding affinity at dopamine transporter (DAT)
Conditions: test ligand 10 μM; [3H]BTCP 4 nM
Respond numerically; units are % and should not be typed.

# count of solved cases: 2
| molecule | DAT, percent of control-specific binding (%) |
| --- | --- |
| CC(Cc1ccc2c(c1)OCCO2)NCc1cc2c(cc1Br)OCCO2 (stereo not drawn) [A(XI)] | 47 |
| c1cc(CCN2CCCC2)c2c(c1)OCO2 [A(XXIX)] | 49 |

Attention now turns to another entry.
Input line: What does the record list as DAT, percent of control-specific binding for CC(Cc1ccc2c(c1)OCO2)N1CCOCC1 (stereo not drawn) [A(III)] ?
Output line: 9

###

Molecular target: 5-HT2B (h) (Homo sapiens, UniProt P41595)
Construct: host or cells: CHO cells
Sequence (P41595 whole entry): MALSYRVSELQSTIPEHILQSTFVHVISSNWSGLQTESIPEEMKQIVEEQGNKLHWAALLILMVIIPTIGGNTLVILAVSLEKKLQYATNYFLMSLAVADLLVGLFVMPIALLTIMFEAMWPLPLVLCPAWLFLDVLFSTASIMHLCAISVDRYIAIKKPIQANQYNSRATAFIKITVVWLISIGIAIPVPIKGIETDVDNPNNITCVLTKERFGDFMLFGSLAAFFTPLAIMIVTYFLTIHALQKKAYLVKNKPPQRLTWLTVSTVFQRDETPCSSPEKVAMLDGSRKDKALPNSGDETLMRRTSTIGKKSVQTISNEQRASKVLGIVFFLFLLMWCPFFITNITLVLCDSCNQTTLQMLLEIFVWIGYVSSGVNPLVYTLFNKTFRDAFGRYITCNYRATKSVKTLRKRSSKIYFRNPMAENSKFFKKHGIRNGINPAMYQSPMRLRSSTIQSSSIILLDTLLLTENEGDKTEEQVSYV
Test: Competition assay to measure binding affinity at 5-HT2B receptor
Conditions: test ligand 10 μM; [3H]mesulergine 2 nM
measurement-type: HT2B, percent of control-specific binding (%)
Report the figure in % without appending any unit label.

Example entries begin here.
| compound | unit-info | value-reported |
| --- | --- | --- |
| CC(Cc1ccc2c(c1)OCCO2)NCc1ccccc1 (stereo not drawn) [A(XXIII)] | % | 66 |
| CC(NC(C)(C)C)C(=O)c1cccc(Cl)c1 (stereo not drawn) [Bupropion, reference compound] | % | −2 |
| c1cc(CCN2CCCC2)c2c(c1)OCO2 [A(XXIX)] | % | 48 |
| CCCOc1c(OC)cc(CCN)cc1OC [proscaline, reference compound] | % | 85 |
| CC(Cc1ccc2c(c1)OCO2)NN(C)C (stereo not drawn) [A(VIII)] | % | 67 |

Input line: Return reported HT2B, percent of control-specific binding; argument: O=C(Cc1cc2c(cc1Br)OCO2)NCCO [A(XIX)]
Output line: 7

Input line: Value lookup for HT2B, percent of control-specific binding; key = O=C(Cc1ccc2c(c1)OC(F)(F)O2)N1CCCC1 [A(XXVII)]
Output line: 5

Input line: Entry CC(Cc1ccc2c(c1)OCCO2)NCc1ccc2c(c1)OCO2 (stereo not drawn) [A(XII)] has what HT2B, percent of control-specific binding?
Output line: 86

Input line: Reported HT2B, percent of control-specific binding, compound COc1cc2c(cc1CNC(C)Cc1ccc3c(c1)OCO3)OCO2 (stereo not drawn) [A(V)] : ____
Output line: 92

Input line: So what does the record say about HT2B, percent of control-specific binding for CC(Cc1ccc2c(c1)OCO2)N1CCOCC1 (stereo not drawn) [A(III)] ?
Output line: 13

Input line: Which HT2B, percent of control-specific binding value is on record for CC(Cc1ccc2c(c1)OCCO2)NCc1ccc2c(c1)OCCO2 (stereo not drawn) [A(XIII)] ?
Output line: 85

Input line: # input compound: c1cc2c(cc1CCN1CCOCC1)OCO2 [A(VII)] ; wanted: its HT2B, percent of control-specific binding
Output line: 12

Input line: Fill in: HT2B, percent of control-specific binding of COc1cc2c(cc1CC(=O)N1CCCC1)OCO2 [A(XXI)] is ___
Output line: 33

Input line: Which HT2B, percent of control-specific binding is reported for this compound? CON(C)C(C)Cc1ccc2c(c1)OCO2 (stereo not drawn) [A(XVIII)]
Output line: 9

Input line: Name the reported HT2B, percent of control-specific binding value associated with the compound CC(Cc1ccc2c(c1)OCO2)NC1CCC1 (stereo not drawn) [A(I)]
Output line: 37

Input line: Would you kindly share the measured HT2B, percent of control-specific binding for O=c1n(CCCN2CCN(c3cccc(Cl)c3)CC2)nc2ccccn12 [Trazodone, reference compound] ?
Output line: 97

Input line: So what does the record say about HT2B, percent of control-specific binding for CC(C)(C)OC(=O)NC1CN(CCc2ccc3c(c2)OCO3)C1 [A(XV)] ?
Output line: 58

Input line: Reported HT2B, percent of control-specific binding for COc1cc(CCN)cc(OC)c1OC [mescaline, 3,4,5 trimethoxyphenethylamine] : what is it?
Output line: 80

Input line: // HT2B, percent of control-specific binding lookup, key: O=C(Cc1c(Br)ccc2c1OCO2)N1CCCC1 [A(XXVI)]
Output line: 1

Input line: Return reported HT2B, percent of control-specific binding; argument: FC1(F)Oc2ccc(CCN3CCCC3)cc2O1 [A(XXVIII)]
Output line: 15

Input line: I am curious: what HT2B, percent of control-specific binding value has been reported for CC(Cc1ccc2c(c1)OCO2)NCc1cc2c(cc1Br)OCO2 (stereo not drawn) [A(VI)] ?
Output line: 99

Input line: # query: HT2B, percent of control-specific binding of entry N#Cc1ccc2[nH]cc(CCCCN3CCN(c4ccc5oc(C(N)=O)cc5c4)CC3)c2c1 [Vilazodone, reference compound]
Output line: 96

Input line: Suppose we examine the compound CC(Cc1ccc2c(c1)OCCO2)NCc1cc2c(cc1Br)OCO2 (stereo not drawn) [A(IX)] ; what HT2B, percent of control-specific binding value has been reported?
Output line: 97

###

Molecular target: 5-HT1A receptor (Homo sapiens)
Construct: purchased Perkin Elmer 6110501400UA
Sequence (P08908 whole entry): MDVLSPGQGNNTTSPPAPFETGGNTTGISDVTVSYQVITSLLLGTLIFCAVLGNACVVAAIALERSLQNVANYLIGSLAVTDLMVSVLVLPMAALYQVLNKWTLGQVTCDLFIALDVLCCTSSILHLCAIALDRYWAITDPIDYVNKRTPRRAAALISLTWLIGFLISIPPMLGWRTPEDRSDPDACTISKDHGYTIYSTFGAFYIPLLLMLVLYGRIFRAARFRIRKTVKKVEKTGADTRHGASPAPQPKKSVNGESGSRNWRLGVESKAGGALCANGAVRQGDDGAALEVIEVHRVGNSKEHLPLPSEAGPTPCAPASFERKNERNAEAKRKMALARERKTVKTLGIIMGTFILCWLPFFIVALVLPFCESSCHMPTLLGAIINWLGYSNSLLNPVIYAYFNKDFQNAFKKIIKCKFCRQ
Assay: Functional 5-HT1A receptor cAMP assay in CHO-K1/5-HT1A/Gα15 cells
Format: cell-based
Settings: +5-HT1A cells, 4 μM forskolin, FIGS. 37B-37H
measurement-type: 5-HT1A receptor engagement (change in cAMP levels), in words

| compound | system-name | value-reported |
| --- | --- | --- |
| COc1cc(CCN)c(OC)cc1Br [2C-B, reference compound] | 5-HT1A receptor (Homo sapiens) | reduction in cAMP levels |
| CNC(C)Cc1ccc2c(c1)OCO2 (stereo not drawn) [MDMA, reference compound] | 5-HT1A receptor (Homo sapiens) | mild |
| COc1cc(CCN)cc(OC)c1OC | 5-HT1A receptor (Homo sapiens) | no |
| NCCc1c[nH]c2ccc(O)cc12 [serotonin, reference compound] | 5-HT1A receptor (Homo sapiens) | reduction in cAMP levels |

Input line: Query: 5-HT1A receptor engagement (change in cAMP levels), in words; subject: `CN(C)CCc1c[nH]c2cccc(O)c12`
Output line: reduction in cAMP levels

###

Target: 5-HT2A receptor (Homo sapiens, UniProt P28223)
Sequence (P28223 whole entry): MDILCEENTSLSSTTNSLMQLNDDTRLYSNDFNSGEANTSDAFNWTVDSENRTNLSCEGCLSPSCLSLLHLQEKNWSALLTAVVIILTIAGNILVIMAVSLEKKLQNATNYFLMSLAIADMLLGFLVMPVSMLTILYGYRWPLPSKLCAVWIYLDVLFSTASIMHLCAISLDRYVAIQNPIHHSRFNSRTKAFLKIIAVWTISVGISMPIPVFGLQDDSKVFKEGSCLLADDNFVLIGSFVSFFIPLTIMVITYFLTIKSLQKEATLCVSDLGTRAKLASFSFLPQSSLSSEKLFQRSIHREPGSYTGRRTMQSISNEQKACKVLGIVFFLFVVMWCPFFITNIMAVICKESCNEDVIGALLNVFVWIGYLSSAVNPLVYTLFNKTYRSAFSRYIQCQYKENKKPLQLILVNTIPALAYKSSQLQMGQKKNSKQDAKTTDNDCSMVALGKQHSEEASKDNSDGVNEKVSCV
Assay: 5-HT2A receptor radioligand competition assay (SPA)
Settings: read-out: 5-HT2A, Ki; competition with 1 nM [3H]ketanserin; test compound 3 nM to 1 mM
measurement-type: Ki (µM)
The reply should be a number in µM, with the unit left off.

| compound | Ki / µM |
| --- | --- |
| CCOc1c(OC)cc(CCN)cc1OC | 61 |

Input line: So what Ki did CNC(C)Cc1ccc2c(c1)OCO2 (stereo not drawn) [MDMA, reference compound] get with 5-HT2A receptor (Homo sapiens, UniProt P28223)?
Output line: 39.9

Input line: Find Ki (5-HT2A receptor (Homo sapiens, UniProt P28223)) for the entry COc1cc(CCN)c(OC)cc1Br [2C-B, reference compound]
Output line: 0.414

###

Target: 5-HT7 (h) (Homo sapiens, UniProt P34969)
Construct: host or cells: HEK-293 cells
Sequence (P34969 whole entry): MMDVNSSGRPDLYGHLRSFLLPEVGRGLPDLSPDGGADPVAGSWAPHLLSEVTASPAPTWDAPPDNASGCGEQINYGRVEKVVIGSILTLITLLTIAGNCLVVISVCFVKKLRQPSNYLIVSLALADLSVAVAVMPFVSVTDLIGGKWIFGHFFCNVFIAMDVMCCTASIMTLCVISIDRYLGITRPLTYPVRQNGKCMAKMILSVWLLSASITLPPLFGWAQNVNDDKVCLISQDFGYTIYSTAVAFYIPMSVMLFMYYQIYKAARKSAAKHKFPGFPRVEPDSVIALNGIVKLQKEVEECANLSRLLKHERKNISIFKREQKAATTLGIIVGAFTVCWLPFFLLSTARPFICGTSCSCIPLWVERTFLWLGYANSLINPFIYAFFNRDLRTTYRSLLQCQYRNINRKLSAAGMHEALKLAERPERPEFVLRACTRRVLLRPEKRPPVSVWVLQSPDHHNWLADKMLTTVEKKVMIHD
Experiment: Competition assay to measure binding affinity at 5-HT7 receptor
Conditions: test ligand 10 μM; [3H]LSD 4 nM
Reported HT7, percent of control-specific binding by item:
Kindly provide the numeric value in % only, without the unit symbol.

Field: example entries. Status: answers known.
| compound | value-reported |
| --- | --- |
| CC(Cc1ccc2c(c1)OCO2)N1CCOCC1 (stereo not drawn) | 3 |
| CC(Cc1ccc2c(c1)OCCO2)N1CC(NC(=O)OC(C)(C)C)C1 (stereo not drawn) | 62 |
| CON(C)C(C)Cc1ccc2c(c1)OCO2 (stereo not drawn) | 6 |

Input line: Can you look up the measured HT7, percent of control-specific binding of CNC(C)Cc1ccc2c(c1)OCO2 (stereo not drawn) [MDMA, reference compound] for me?
Output line: 58

Input line: State the recorded HT7, percent of control-specific binding for this entry: CC(Cc1ccc2c(c1)OCCO2)NCc1ccc2c(c1)OCCO2 (stereo not drawn)
Output line: 52

Input line: Form field: reported HT7, percent of control-specific binding of CC(Cc1ccc2c(c1)OCO2)NN(C)C (stereo not drawn)
Output line: 17
